test system: HeLa; assay: Cytotoxicity against human HeLa cells assessed as cell viability after 72 hrs by CCK8 assay; format: functional, cell-based
Could you please mark Fulfilled for values of IC50 below 9 µM and Not fulfilled for values at or above it?

INSERT INTO assay_data (compound, tested_on, assigned_label) VALUES
  ('C/C=C(\C)C(=O)O[C@@H]1[C@@H](C)[C@@]2(O)[C@@H](C=C(CO)C[C@]3(O)C(=O)C(C)=C[C@@H]23)[C@@H]2C(C)(C)[C@]12OC(=O)C(C)CC (some centres not stated)', 'HeLa', 'Not fulfilled'),
  ('CC(=O)O[C@@H]1[C@@H](C)[C@@]2(O)[C@@H](C=C(CO)C[C@]3(O)C(=O)C(C)=C[C@@H]23)[C@@H]2C(C)(C)[C@]12OC(=O)C(C)C', 'HeLa', 'Fulfilled'),
  ('CCC(C)C(=O)O[C@@]12[C@H](O)[C@@H](C)[C@]3(O)[C@@H]4C=C(C)C(=O)[C@@H]4CC(CO)=C[C@H]3[C@@H]1C2(C)C (some centres not stated)', 'HeLa', 'Not fulfilled'),
  ('CCC(C)C(=O)O[C@@]12[C@H](OC(=O)c3ccccc3)[C@@H](C)[C@@]3(O)[C@@H](C=C(CO)C[C@]4(O)C(=O)C(C)=C[C@@H]34)[C@@H]1C2(C)C (some centres not stated)', 'HeLa', 'Fulfilled'),
  ('C/C=C(\C)C(=O)O[C@@H]1[C@@H](C)[C@@]2(O)[C@@H](C(=O)C(CO)=C[C@]3(O)C(=O)C(C)=C[C@@H]23)[C@@H]2C(C)(C)[C@]12OC(=O)C(C)CC (some centres not stated)', 'HeLa', 'Fulfilled'),
  ('CCC(C)C(=O)O[C@@]12[C@H](OC(C)=O)[C@@H](C)[C@@]3(O)[C@@H](C(=O)C(CO)=C[C@]4(O)C(=O)C(C)=C[C@@H]34)[C@@H]1C2(C)C (some centres not stated)', 'HeLa', 'Not fulfilled');
